The following molecules are shown together with reported pEC50 values.
biological target: F508delCFTR (Homo sapiens, UniProt P13569, DEL508-508); construct: expressed in transfected cells; host or cells: CFBE41o- human lung-derived epithelial cells (CFBE4lo-F508delCFTR-HRP), doxycycline-inducible; test: Cell Surface Expression-Horse Radish Peroxidase (CSE-HRP) Assay; type: cell-based; conditions: test compound without co-corrector; read-out: EC50 (without co-corrector)
Sequence (P13569 with tags, fused parts or gaps DEL508-508): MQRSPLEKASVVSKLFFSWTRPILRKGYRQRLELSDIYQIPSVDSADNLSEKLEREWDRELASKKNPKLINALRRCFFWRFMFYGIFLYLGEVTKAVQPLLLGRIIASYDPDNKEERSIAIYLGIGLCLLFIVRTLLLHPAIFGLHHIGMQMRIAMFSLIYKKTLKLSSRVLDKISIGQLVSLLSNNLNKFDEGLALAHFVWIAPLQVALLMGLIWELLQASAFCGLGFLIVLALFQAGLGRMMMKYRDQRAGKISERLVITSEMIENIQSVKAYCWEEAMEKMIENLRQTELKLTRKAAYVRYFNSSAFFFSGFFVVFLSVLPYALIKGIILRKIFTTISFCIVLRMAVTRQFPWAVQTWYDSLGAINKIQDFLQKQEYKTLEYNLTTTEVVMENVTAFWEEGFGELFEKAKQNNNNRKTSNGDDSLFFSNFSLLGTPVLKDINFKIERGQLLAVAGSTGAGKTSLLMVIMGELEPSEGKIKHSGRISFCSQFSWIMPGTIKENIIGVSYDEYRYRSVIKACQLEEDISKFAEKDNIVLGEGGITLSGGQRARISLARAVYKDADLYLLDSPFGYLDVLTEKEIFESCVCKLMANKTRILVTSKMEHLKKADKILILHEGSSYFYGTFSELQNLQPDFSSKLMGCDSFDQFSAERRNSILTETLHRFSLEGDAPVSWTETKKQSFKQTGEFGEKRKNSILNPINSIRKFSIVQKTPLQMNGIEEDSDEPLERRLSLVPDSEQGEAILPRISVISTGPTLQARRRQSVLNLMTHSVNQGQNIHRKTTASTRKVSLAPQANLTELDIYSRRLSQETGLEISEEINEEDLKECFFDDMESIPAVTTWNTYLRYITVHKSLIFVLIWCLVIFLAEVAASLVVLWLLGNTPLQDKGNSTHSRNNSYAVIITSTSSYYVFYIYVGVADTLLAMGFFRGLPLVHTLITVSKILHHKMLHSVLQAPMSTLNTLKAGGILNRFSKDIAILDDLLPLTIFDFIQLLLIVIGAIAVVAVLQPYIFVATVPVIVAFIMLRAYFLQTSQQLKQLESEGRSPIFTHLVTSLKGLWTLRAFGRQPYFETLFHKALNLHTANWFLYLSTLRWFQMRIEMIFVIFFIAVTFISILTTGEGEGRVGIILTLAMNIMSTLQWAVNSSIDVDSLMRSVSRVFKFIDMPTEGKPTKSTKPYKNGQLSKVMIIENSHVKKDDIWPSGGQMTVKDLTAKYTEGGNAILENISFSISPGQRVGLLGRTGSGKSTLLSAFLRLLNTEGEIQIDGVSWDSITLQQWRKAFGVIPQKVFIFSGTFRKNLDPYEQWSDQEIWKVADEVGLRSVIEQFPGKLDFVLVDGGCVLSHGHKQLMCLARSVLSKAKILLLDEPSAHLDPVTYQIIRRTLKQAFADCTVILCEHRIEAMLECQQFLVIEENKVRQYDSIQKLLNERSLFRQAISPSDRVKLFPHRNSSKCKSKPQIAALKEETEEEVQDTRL
pEC50: −log10 of the molar value.

Here is how some molecules turned out for pEC50.
molecule	pEC50
CC(C)(C)[C@@H]1[C@@H](NCc2cc(C(F)(F)F)ccc2OCCCS(C)(=O)=O)[C@@H](c2ccccc2)N(C(=O)C2CCCCC2)[C@H]1C(=O)O (racemic) [III-84]	< 5.00
COc1cc(C(F)(F)F)ccc1CN[C@H]1[C@H](C(C)(C)C)[C@@H](C(=O)O)N(C(=O)OC(C)C)[C@H]1c1ccccc1 [II-487]	5.00 to 6.00
COc1ccc(C(F)(F)F)cc1CN[C@@H]1[C@@H](C(C)(C)C)[C@H](C(=O)O)N(C(=O)C2CCCCC2)[C@@H]1c1ccccc1N(C)C (racemic) [Example I-22]	5.00 to 6.00
COc1ncc(C(F)(F)F)cc1CN[C@H]1[C@H](C(C)(C)OC)[C@@H](C(=O)O)N(C(=O)C2CCCCC2)[C@H]1c1ccccc1 [Example 22]	> 6.00
COc1ccc(-n2ncc(C(=O)N3[C@H](C(=O)O)[C@@H](C(C)(C)C)[C@H](NCc4cc(C(C)(C)C)ccc4OC)[C@@H]3c3ccccc3)c2C)cc1 [II-357]	5.00 to 6.00

Consider the additional molecule presented here.
Request body: readout pEC50, system F508delCFTR (Homo sapiens, UniProt P13569, DEL508-508), query CC(C)(C)[C@H]1[C@H](NCc2cc(Br)ccc2OC(F)F)[C@H](c2ccccc2)N(C(=O)C2CCCCC2)[C@@H]1C(=O)O [III-131] . Return the value.
> 6.00

---

target: F508delCFTR (Homo sapiens, UniProt P13569, DEL508-508); construct: expressed in transfected cells; host or cells: CFBE41o- human lung-derived epithelial cells (CFBE4lo-F508delCFTR-HRP), doxycycline-inducible; assay: Cell Surface Expression-Horse Radish Peroxidase (CSE-HRP) Assay; type: cell-based; conditions: EC50 (without co-corrector), test compound without co-corrector
recorded endpoint: EC50

Record request: EC50 value, item COc1ccc(C(C)(C)C)cc1CN[C@H]1[C@H](C(C)(C)C)[C@@H](C(=O)O)N(C(=O)Oc2ccccc2)[C@H]1c1ccccc1
1 to 10 µM

---

target: F508delCFTR (Homo sapiens, UniProt P13569, DEL508-508); construct: expressed in transfected cells; host or cells: CFBE41o- human lung-derived epithelial cells (CFBE4lo-F508delCFTR-HRP), doxycycline-inducible; experiment: Cell Surface Expression-Horse Radish Peroxidase (CSE-HRP) Assay; type: cell-based; settings: with co-corrector (2 μM of 3-[(2R,4R)-4-({[1-(2,2-difluoro-1,3-benzodioxol-5-yl)cyclopropyl]carbonyl}amino)-7-methoxy-3,4-dihydro-2H-chromen-2-yl]benzoic acid); read-out: EC50 (with co-corrector)
The following compounds are shown together with reported EC50 values.

compound	system name	recorded endpoint	reported value
COc1ccc(CN[C@@H]2[C@@H](C(C)(C)C)[C@H](C(=O)O)N(C(=O)OC(C)C)[C@@H]2c2ccccc2)c(OC)c1 (racemic)	F508delCFTR (Homo sapiens, UniProt P13569, DEL508-508)	EC50	1 to 10 µM
Cc1cc(C(F)(F)F)cc(N[C@H]2C(c3ccccc3)N(C(=O)N(C(C)C)C(C)C)[C@@H](C(=O)O)[C@@H]2C2CC2)n1 (mixture of isomers)	F508delCFTR (Homo sapiens, UniProt P13569, DEL508-508)	EC50	1 to 10 µM
COc1cc(C(F)(F)F)ccc1CN[C@H]1[C@H](C(C)(C)C)[C@@H](C(=O)O)N(C(=O)C2CCCC(F)(F)C2)[C@H]1c1ccccc1 (stereo partly drawn)	F508delCFTR (Homo sapiens, UniProt P13569, DEL508-508)	EC50	< 1 µM
COc1cccc([C@H]2[C@@H](Nc3cc(C(F)(F)F)cc(C)n3)[C@H](C(C)(C)C)[C@@H](C(=O)O)N2C(=O)C2CCCCC2)n1 (racemic)	F508delCFTR (Homo sapiens, UniProt P13569, DEL508-508)	EC50	1 to 10 µM
Cc1cc(C(F)(F)F)cc(N[C@@H]2[C@@H](C(C)(C)C)[C@H](C(=O)NS(=O)(=O)N(C)C)N(C(=O)C3CCCCC3)[C@@H]2c2ccccc2)n1 (racemic)	F508delCFTR (Homo sapiens, UniProt P13569, DEL508-508)	EC50	1 to 10 µM

Consider the additional compound presented here.
Record request: EC50 value, item COc1ccc(C(C)(C)C)cc1CN[C@H]1[C@H](C(C)(C)C)[C@@H](C(=O)O)N(C(=O)OC(C)C)[C@H]1c1cccnc1OC
1 to 10 µM

# credit: patent US20180099931A1
